- Test system: DLD-1 cells (human colorectal cancer cells)
- run.description: MTS cell viability drug combination assay, combination index, DLD-1
- Format: cell-based
- settings: 17-AAG Post-Administration (antimitotic 24 h, then 17-AAG 48 h), CI<1 synergism
Entries and their measured CI value (combination index) of antimitotic with 17-AAG follow.
API note: the answer field is a bare number with no unit suffix.

>>> measured_result("C/C1=C/C[C@@H](/C(C)=C/c2csc(C)n2)OC(=O)C[C@H](O)C(C)(C)C(=O)[C@H](C)[C@@H](O)[C@@H](C)CCC1 [Epothilone D, epothilone D]")
0.61
>>> measured_result("CC[C@]1(O)C[C@H]2CN(CCc3c([nH]c4ccccc34)[C@@](C(=O)OC)(c3cc4c(cc3OC)N(C=O)[C@H]3[C@@](O)(C(=O)OC)[C@H](OC(C)=O)[C@]5(CC)C=CCN6CC[C@]43[C@@H]65)C2)C1 [Vincristine, vincristine]")
0.42
>>> measured_result("CC[C@]1(O)C[C@@H]2CN(CCc3c([nH]c4ccccc34)[C@@](C(=O)OC)(c3cc4c(cc3OC)N(C)[C@H]3[C@@](O)(C(N)=O)[C@H](O)[C@]5(CC)C=CCN6CC[C@]43[C@@H]65)C2)C1 [Vindesine, vindesine]")
0.68
>>> measured_result("CC[C@]1(O)C[C@@H]2CN(CCc3c([nH]c4ccccc34)[C@@](C(=O)OC)(c3cc4c(cc3OC)N(C)[C@H]3[C@@](O)(C(=O)OC)[C@H](OC(C)=O)[C@]5(CC)C=CCN6CC[C@]43[C@@H]65)C2)C1 [Vinblastine, vinblastine]")
0.38

Let's switch to this molecule now.
Quick one: CI value (combination index) of antimitotic with 17-AAG of CC(=O)O[C@@]12CO[C@@H]1C[C@H](O)[C@@]1(C)C(=O)[C@H](O)C3=C(C)[C@@H](OC(=O)[C@H](O)[C@@H](NC(=O)OC(C)(C)C)c4ccccc4)C[C@@](O)([C@@H](OC(=O)c4ccccc4)[C@H]21)C3(C)C [Docetaxel, docetaxel] ?
0.29

---

- Tested on: SKBr-3 cells (human breast cancer cells)
- run.description: MTS cell viability drug combination assay, combination index, SKBr-3
- Assay type: cell-based
- settings: 17-AAG Pre-Administration (17-AAG 24 h, then antimitotic 48 h), CI<1 synergism
quantity.name: CI value (combination index) of antimitotic with 17-AAG
Respond with the number and no other words.

Reference set, count: 3
>>> measured_result("C/C1=C/C[C@@H](/C(C)=C/c2csc(C)n2)OC(=O)C[C@H](O)C(C)(C)C(=O)[C@H](C)[C@@H](O)[C@@H](C)CCC1 [Epothilone D, epothilone D]")
0.72
>>> measured_result("CC[C@]1(O)C[C@@H]2CN(CCc3c([nH]c4ccccc34)[C@@](C(=O)OC)(c3cc4c(cc3OC)N(C)[C@H]3[C@@](O)(C(=O)OC)[C@H](OC(C)=O)[C@]5(CC)C=CCN6CC[C@]43[C@@H]65)C2)C1 [Vinblastine, vinblastine]")
0.39
>>> measured_result("CC(=O)O[C@@]12CO[C@@H]1C[C@H](O)[C@@]1(C)C(=O)[C@H](O)C3=C(C)[C@@H](OC(=O)[C@H](O)[C@@H](NC(=O)OC(C)(C)C)c4ccccc4)C[C@@](O)([C@@H](OC(=O)c4ccccc4)[C@H]21)C3(C)C [Docetaxel, docetaxel]")
0.53

Now consider a different compound.
CI value (combination index) of antimitotic with 17-AAG of CC[C@]1(O)C[C@H]2CN(CCc3c([nH]c4ccccc34)[C@@](C(=O)OC)(c3cc4c(cc3OC)N(C=O)[C@H]3[C@@](O)(C(=O)OC)[C@H](OC(C)=O)[C@]5(CC)C=CCN6CC[C@]43[C@@H]65)C2)C1 [Vincristine, vincristine] on SKBr-3 cells (human breast cancer cells)?
0.67
